meta.source: PubChem BioAssay (EPA / NIEHS)

System: zebrafish Estrogen Receptor (ER2b), gene 317733
protocol: ATG_zfER2b_XSP2: Attagene TRANS-FACTORIAL Multi-Species (XSP2) HepG2 Assay for zebrafish Estrogen Receptor (ER2b) (AID 2283823);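 note: fitted upward as reporter gain over DMSO so potency reflects activation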
Inconclusive results are not listed. Active and inactive are the calls of the source. Rule for the calls: active = hit-call score of the fitted dose curve at least 0.9, where 1 is the maximum; inconclusive = response in the unintended direction; inactive = score below 0.9.
Reported AC50 values are given for each entry in this list.

// worked examples, AC50 included
{"columns": ["compound", "target_system", "result"],
 "data": [
  ["CC(C)(c1ccccc1)c1ccc(O)cc1", "zebrafish Estrogen Receptor (ER2b), gene 317733", "2.77 µM (active)"],
  ["CC(C)(O)C(=O)Nc1ccc([N+](=O)[O-])c(C(F)(F)F)c1", "zebrafish Estrogen Receptor (ER2b), gene 317733", "36.1 µM (active)"],
  ["Clc1ccc(C(c2ccccc2Cl)C(Cl)(Cl)Cl)cc1 (centres undefined)", "zebrafish Estrogen Receptor (ER2b), gene 317733", "0.998 µM (active)"]
]}

The record that follows has no AC50 shown yet.
The recorded AC50 for ClC(Cl)=C(c1ccc(Cl)cc1)c1ccc(Cl)cc1 is 7.9 µM (active)
